So I've got a bunch of compounds here, and I need their pIC50 values.
molecular target: TRKB (Homo sapiens, UniProt Q16620); construct: purchased Carna; assay: In vitro kinase inhibitory activity assay, Experimental method 2 (ADP-Glo); assay type: biochemical
Sequence (Q16620 32-822): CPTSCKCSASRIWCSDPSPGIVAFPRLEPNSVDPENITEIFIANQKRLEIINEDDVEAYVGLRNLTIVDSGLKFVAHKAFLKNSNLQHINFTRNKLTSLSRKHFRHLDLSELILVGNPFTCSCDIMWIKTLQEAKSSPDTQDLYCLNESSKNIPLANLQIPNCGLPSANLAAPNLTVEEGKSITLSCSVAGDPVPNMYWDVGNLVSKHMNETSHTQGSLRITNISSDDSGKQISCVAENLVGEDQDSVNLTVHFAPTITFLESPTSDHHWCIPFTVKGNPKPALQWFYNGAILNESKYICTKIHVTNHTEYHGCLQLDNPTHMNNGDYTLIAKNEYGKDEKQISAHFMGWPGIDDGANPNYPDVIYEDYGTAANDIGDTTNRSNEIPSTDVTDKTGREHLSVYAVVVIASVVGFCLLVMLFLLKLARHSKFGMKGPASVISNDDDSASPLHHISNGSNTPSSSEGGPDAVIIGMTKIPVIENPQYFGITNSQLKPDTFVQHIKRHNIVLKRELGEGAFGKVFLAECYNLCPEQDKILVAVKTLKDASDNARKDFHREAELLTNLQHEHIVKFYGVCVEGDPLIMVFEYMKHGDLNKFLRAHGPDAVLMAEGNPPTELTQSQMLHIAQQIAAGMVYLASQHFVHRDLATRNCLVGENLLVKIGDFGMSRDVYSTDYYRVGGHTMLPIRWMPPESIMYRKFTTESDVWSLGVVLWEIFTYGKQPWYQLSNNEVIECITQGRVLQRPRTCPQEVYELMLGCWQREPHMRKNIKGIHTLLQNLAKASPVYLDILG
The value called pIC50 is obtained by taking minus log10 of the concentration in mol/L.

Problem: Identify pIC50 associated with the compound `CC1(C)COc2ccc(F)cc2CN2c3nc4c(cc3OC[C@H]2C(F)F)ncn4C(=O)N1`
Result: 8.59

Problem: Give reported pIC50 value for `Cc1nc2cc3c4nc2n1C(=O)NC(C)(C)COc1ccc(F)cc1CN4[C@H](C(F)F)CO3`
Result: 8.54

###

test: Cell permeability test, MDCKII-MDR1 monolayer; type: in vitro ADME; conditions: dog, MDCK-MDR1, pH 7.4
MEASURED_METRIC: efflux ratio at 2.5 h, 2 µM

Problem: Assign efflux ratio at 2.5 h, 2 µM to the following record: `CC1(C)COc2ncc(F)cc2CN2c3nc4c(cc3OC[C@H]2C(F)F)ncn4C(=O)N1`
Result: 0.77

###

biological target: ALK(G1202R/L1196M) (Homo sapiens, UniProt Q9UM73, G1202R/L1196M); construct: purchased Carna; assay: In vitro kinase inhibitory activity assay, Experimental method 2 (ADP-Glo); format: biochemical; conditions: Experimental method 2; ATP 5.0 µM, substrate IGF1; read-out: Kinase half maximal inhibitory concentration IC50 ALK^G1202R/L1196M
Sequence (Q9UM73 19-1620 L1196M/G1202R): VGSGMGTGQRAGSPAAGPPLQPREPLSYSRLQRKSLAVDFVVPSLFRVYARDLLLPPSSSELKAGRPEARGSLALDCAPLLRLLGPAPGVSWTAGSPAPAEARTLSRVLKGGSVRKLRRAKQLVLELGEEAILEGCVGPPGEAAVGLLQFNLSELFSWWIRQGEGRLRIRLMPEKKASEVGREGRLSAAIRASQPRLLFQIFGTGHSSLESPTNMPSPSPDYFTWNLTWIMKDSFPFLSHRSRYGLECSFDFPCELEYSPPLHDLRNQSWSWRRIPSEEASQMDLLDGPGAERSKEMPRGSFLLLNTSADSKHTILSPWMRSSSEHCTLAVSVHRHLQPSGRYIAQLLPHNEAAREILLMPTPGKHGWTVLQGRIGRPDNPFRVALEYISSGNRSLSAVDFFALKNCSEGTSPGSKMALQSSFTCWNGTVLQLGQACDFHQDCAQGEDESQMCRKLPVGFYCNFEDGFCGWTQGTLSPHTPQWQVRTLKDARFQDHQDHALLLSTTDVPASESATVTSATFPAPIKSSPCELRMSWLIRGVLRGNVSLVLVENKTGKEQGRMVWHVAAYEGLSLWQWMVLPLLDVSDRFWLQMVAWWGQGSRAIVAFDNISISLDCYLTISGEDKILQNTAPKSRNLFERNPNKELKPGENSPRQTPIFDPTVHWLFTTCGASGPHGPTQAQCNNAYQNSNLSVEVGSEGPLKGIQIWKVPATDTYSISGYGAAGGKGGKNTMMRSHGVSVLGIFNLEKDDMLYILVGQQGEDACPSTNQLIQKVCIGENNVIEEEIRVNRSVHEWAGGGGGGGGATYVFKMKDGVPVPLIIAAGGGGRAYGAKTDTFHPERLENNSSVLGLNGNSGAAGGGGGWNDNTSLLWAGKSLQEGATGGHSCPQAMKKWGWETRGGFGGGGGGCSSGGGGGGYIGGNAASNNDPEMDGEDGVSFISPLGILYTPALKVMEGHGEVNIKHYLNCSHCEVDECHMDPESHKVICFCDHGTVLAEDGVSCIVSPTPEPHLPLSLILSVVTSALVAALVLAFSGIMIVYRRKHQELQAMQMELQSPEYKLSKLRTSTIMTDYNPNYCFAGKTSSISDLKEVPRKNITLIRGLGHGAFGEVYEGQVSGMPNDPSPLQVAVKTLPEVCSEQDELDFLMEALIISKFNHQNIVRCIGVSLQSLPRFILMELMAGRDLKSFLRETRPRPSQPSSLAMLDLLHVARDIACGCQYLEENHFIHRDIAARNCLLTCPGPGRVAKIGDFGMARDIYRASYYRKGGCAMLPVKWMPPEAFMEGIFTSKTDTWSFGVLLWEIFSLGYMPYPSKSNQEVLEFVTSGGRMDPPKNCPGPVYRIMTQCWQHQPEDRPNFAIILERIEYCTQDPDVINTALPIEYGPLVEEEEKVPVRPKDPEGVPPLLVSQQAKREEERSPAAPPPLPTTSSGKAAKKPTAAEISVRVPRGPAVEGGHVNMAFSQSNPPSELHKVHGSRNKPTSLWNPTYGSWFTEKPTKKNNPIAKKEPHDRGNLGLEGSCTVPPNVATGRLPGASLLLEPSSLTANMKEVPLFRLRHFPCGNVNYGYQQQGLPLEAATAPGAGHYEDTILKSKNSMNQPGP
Each entry falls in a class defined on IC50; the bands are low-valued: < 0.9 nM; mid-valued: ≥ 0.9 nM and < 2 nM; high-valued: ≥ 2 nM

Problem: Dear colleague, I would appreciate it if you could identify the bin for `CC1(C)COc2ccc(F)cc2CN2c3nc4c(c(C#CC5CC5)nn4cc3OC[C@H]2C(F)F)C(=O)N1` and reply at your convenience.
Result: mid-valued

Problem: Band for the recorded IC50 of `CC1(C)COc2ccc(F)cc2CN2c3nc4c(cc3OC[C@H]2C(F)F)ncn4C(=S)N1` ?
Result: mid-valued

Problem: Category of `CON=C1NCC2(CC2)COc2ccc(F)cc2CN2c3nc4c1cnn4cc3OC[C@H]2C(F)F` :
Result: mid-valued

Problem: State the class of the compound shown: `Cc1nn2cc3c4nc2c1C(=O)NC(C)(C)COc1ccc(F)cc1CN4[C@H](C(F)F)CO3`
Result: low-valued

Problem: Kindly identify the class of `CC1(C)COc2ccc(F)cc2CN2c3nc4c(c(C#N)nn4cc3OC[C@H]2C(F)F)C(=O)N1` .
Result: mid-valued

Problem: Assign a bin to `O=C1NC2(CC2)COc2ccc(F)cc2CN2c3nc4c(cc3OC[C@H]2C(F)F)ncn41`
Result: low-valued

Problem: Exercise: read the entry `N#Cc1nn2cc3c4nc2c1C(=O)NC1(CCC1)COc1ccc(F)cc1CN4[C@H](C(F)F)CO3` and state which class it falls under.
Result: high-valued

Problem: Lab note: sort `N#Cc1nn2cc3c4nc2c1C(=O)N[C@H]1C[C@H](C1)Oc1ccc(F)cc1CN4[C@H](C(F)F)CO3` into the matching IC50 band.
Result: high-valued

Problem: Quick check: band for `O=C1N[C@H]2C[C@H](C2)Oc2ccc(F)cc2CN2c3nc4c1c(Br)nn4cc3OC[C@H]2C(F)F`
Result: mid-valued

Problem: Hi, small favor: classify `CC1(C)COc2ccc(F)cc2CN2c3nc4c(c(Br)nn4cc3OC[C@H]2C(F)F)C(=O)N1` by its IC50 when you get a moment.
Result: low-valued

Problem: GET /class?item= `CC#Cc1nn2cc3c4nc2c1C(=O)NC(C)(C)COc1ccc(F)cc1CN4[C@H](C(F)F)CO3`
Result: low-valued

Problem: Dear colleague, I would appreciate it if you could identify the bin for `O=C1NC2(CCC2)COc2ccc(F)cc2CN2c3nc4c1c(Br)nn4cc3OC[C@H]2C(F)F` and reply at your convenience.
Result: high-valued

Problem: Pick a category. Item: `CC1(C)COc2ccc(F)cc2CN2c3nc4c(c(C5CC5)nn4cc3OC[C@H]2C(F)F)C(=O)N1`
Result: high-valued

Problem: State the class of the compound shown: `Cc1nn2cc3c4nc2c1C(=O)NC(C)(C)COc1ncc(F)cc1CN4[C@H](C(F)F)CO3`
Result: low-valued
